- target_desc: (recombinant) catalytic domain of human Bub1 (amino acids 704-1085) (Homo sapiens (Human), UniProt O43683)
- Sequence (O43683 704-1085): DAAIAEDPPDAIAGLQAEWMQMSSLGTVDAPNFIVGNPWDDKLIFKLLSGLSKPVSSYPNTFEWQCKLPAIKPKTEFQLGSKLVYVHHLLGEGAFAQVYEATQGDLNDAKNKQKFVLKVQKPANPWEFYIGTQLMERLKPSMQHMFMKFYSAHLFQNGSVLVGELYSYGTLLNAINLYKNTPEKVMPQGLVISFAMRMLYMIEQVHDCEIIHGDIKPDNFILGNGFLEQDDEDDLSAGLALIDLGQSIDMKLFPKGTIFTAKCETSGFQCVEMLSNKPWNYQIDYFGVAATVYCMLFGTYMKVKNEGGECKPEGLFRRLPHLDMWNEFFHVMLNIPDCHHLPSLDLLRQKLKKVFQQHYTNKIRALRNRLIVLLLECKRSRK
- assay_overview: Bub1 kinase assay (TR-FRET)
- Assay type: biochemical
- conditions_used: ATP 10 μM final, peptide substrate 1 μM final, 60 min at 22° C., read-out: Biological Assay: Bub1 kinase assay median IC50
experimental_endpoint: IC50 (µM)

* O=C1CCCc2[nH]c(-c3ccnc(NC(=O)C4CC4C(F)(F)F)c3)c(Nc3ccccc3)c21 (racemic) [Example 262] | 0.0326
* CC1(C)CC(=O)c2c([nH]c(-c3ccncc3)c2Nc2cccc(Cl)c2)C1 [Example 4] | 0.0159
* CC(C)C1CC(=O)c2c([nH]c(-c3ccncc3)c2Nc2ccccc2)C1 (single isomer, unassigned) [Example 17] | 0.00404
* O=C1CCCc2[nH]c(-c3ccnc(NC(=S)NC4CC4)c3)c(Nc3ccccc3)c21 [Example 395] | 0.213

---

- target_desc: (recombinant) catalytic domain of human Bub1 (amino acids 704-1085) (Homo sapiens (Human), UniProt O43683)
- assay_overview: Bub1 kinase assay (TR-FRET)
- conditions_used: ATP 10 μM final, peptide substrate 1 μM final, 60 min at 22° C., read-out: Biological Assay: Bub1 kinase assay median IC50
experimental_endpoint: IC50 (nM)

• Cc1cc(COCC(=O)Nc2cc(-c3[nH]c4c(c3Nc3ccccc3)C(=O)CCC4)ccn2)on1 = 6.53
• C#Cc1cccc(Nc2c(-c3ccncc3)[nH]c3c2C(=O)CC(C)(C)C3)c1 = 509
• O=C1CCCc2[nH]c(-c3ccnc(NC(=O)C4CNC4)c3)c(Nc3ccccc3)c21 = 3450
• CC1(C)CC(=O)c2c([nH]c(-c3ccnc(S(N)(=O)=O)c3)c2Nc2ccccc2)C1 = 649
• CC1(C)CC(=O)c2c([nH]c(-c3ccncc3)c2Nc2ccc(F)cc2)C1 = 16.5
• CC(=O)Nc1cc(-c2[nH]c3c(c2Nc2ccccc2)C(=O)CC(CF)C3)ccn1 (centres unmarked) = 6.88
• CC1(C)CC(=O)c2c([nH]c(-c3ccnc(NC(=O)C(C)(C)F)c3)c2Nc2ccccc2)C1 = 38.7
• Cc1cc(CC(=O)Nc2cc(-c3[nH]c4c(c3Nc3ccccc3)C(=O)CCC4)ccn2)on1 = 15.9

---

- target_desc: (recombinant) catalytic domain of human Bub1 (amino acids 704-1085) (Homo sapiens (Human), UniProt O43683)
- assay_overview: Bub1 kinase assay (TR-FRET)
- conditions_used: ATP 10 μM final, peptide substrate 1 μM final, 60 min at 22° C., read-out: Biological Assay: Bub1 kinase assay median IC50
pIC50: −log10 of the molar value.
experimental_endpoint: pIC50

• CC(C)[n+]1ccc(-c2[nH]c3c(c2Nc2ccccc2)C(=O)CC(C)(C)C3)cc1 [Example 189] = 6.59
• CC1(C)CC(=O)c2c([nH]c(-c3ccncc3)c2Nc2cccc(-c3cccs3)c2)C1 [Example 420] = 7.60
• CC1(C)CC(=O)c2c([nH]c(-c3ccnc(F)c3)c2Nc2ccccc2)C1 [Example 213] = 7.91
• CCCOc1cnccc1-c1[nH]c2c(c1Nc1ccccc1)C(=O)CC(C)(C)C2 [Example 405] = 8.08
• CC(C)(C)C(=O)Nc1cc(-c2[nH]c3c(c2Nc2ccccc2)C(=O)CCC3)ccn1 [Example 227] = 6.59
• CC1(C)CC(=O)c2c([nH]c(-c3ccnc(Nc4cnn(Cc5ccccc5)c4)c3)c2Nc2ccccc2)C1 [Example 204] = 7.37
• CC(=O)Nc1cc(-c2[nH]c3c(c2Nc2ccccc2)C(=O)CCC3)ccn1 [Example 39] = 7.83
• Cc1ccc(Nc2c(-c3ccncc3)[nH]c3c2C(=O)CC(C)(C)C3)c(CO)c1 [Example 482] = 7.91
• Cc1ccccc1Nc1c(-c2ccncc2)[nH]c2c1C(=O)CC(C)(C)C2 [Example 53] = 7.09
• CC(C)(C)NC(=S)Nc1cc(-c2[nH]c3c(c2Nc2ccccc2)C(=O)CCC3)ccn1 [Example 396] = 5.61
• CSc1cc(-c2[nH]c3c(c2Nc2ccccc2)C(=O)CC(C)(C)C3)ccn1 [Example 200] = 6.21
• O=C(Cc1cccs1)Nc1cc(-c2[nH]c3c(c2Nc2ccccc2)C(=O)CCC3)ccn1 [Example 290] = 7.86
• CC1(C)CC(=O)c2c([nH]c(-c3ccnc(NC(=O)[C@@H]4C[C@H]4F)c3)c2Nc2ccccc2)C1 (racemic) [Example 254] = 8.20
• O=C(COc1ccccc1F)Nc1cc(-c2[nH]c3c(c2Nc2ccccc2)C(=O)CCC3)ccn1 [Example 339] = 7.40
• CC1(C)CC(=O)c2c([nH]c(-c3ccncc3Cl)c2Nc2ccccc2)C1 [Example 2] = 8.05
• CCCOCC(=O)Nc1cc(-c2[nH]c3c(c2Nc2ccccc2)C(=O)CCC3)ccn1 [Example 330] = 8.11
• O=C1CC(C(F)(F)F)Cc2[nH]c(-c3ccncc3Cl)c(Nc3cccc(F)c3)c21 (centres unmarked) [Example 436] = 7.68
• CC(C)C1CC(=O)c2c([nH]c(-c3ccnc(NC(=O)C4CC4)c3)c2Nc2cccc(F)c2)C1 (centres unmarked) [Example 320] = 8.09
• CC1(C)CC(=O)c2c([nH]c(-c3ccnc(NCCC(F)(F)F)c3)c2Nc2ccccc2)C1 [Example 362] = 6.41
• O=C(Nc1cc(-c2[nH]c3c(c2Nc2ccccc2)C(=O)CCC3)ccn1)NC1CC1 [Example 379] = 7.44
• C[S+]([O-])c1cnccc1-c1[nH]c2c(c1Nc1ccccc1)C(=O)CC(C)(C)C2 (centres unmarked) [Example 202] = 5.70
• O=C(Nc1cc(-c2[nH]c3c(c2Nc2ccccc2)C(=O)CCC3)ccn1)c1cccc(F)c1 [Example 265] = 7.72
• O=C(Nc1cc(-c2[nH]c3c(c2Nc2ccccc2)C(=O)CCC3)ccn1)c1ccc(F)cc1 [Example 266] = 7.86
• O=C(Nc1cc(-c2[nH]c3c(c2Nc2ccccc2)C(=O)CCC3)ccn1)c1cnn[nH]1 [Example 281] = 7.95
• CC1(C)CC(=O)c2c([nH]c(-c3ccncc3)c2Nc2ccc3[nH]ccc3c2)C1 [Example 70] = 7.09
• CC1(C)CC(=O)c2c([nH]c(-c3ccncc3)c2Nc2cccc([N+](=O)[O-])c2)C1 [Example 16] = 7.57
• CC1(C)CC(=O)c2c([nH]c(-c3ccnc4c3OCCO4)c2Nc2ccccc2)C1 [Example 210] = 6.89
• Cc1cc(COCC(=O)Nc2cc(-c3[nH]c4c(c3Nc3ccccc3)C(=O)CCC4)ccn2)no1 [Example 354] = 8.18
• CC(C)Nc1cc(-c2[nH]c3c(c2Nc2ccccc2)C(=O)CCC3)ccn1 [Example 364] = 6.30
• O=C1CCCc2[nH]c(-c3ccnc(NC(=O)C4CC4)c3)c(Nc3ccc(F)cc3)c21 [Example 314] = 7.32

---

The following compounds are listed with their measured pIC50 values.
- target_desc: (recombinant) catalytic domain of human Bub1 (amino acids 704-1085) (Homo sapiens (Human))
- assay_overview: Bub1 kinase assay (TR-FRET)
- conditions_used: ATP 10 μM final, peptide substrate 1 μM final, 60 min at 22° C., read-out: Biological Assay: Bub1 kinase assay median IC50
pIC50: −log10 of the molar value.
experimental_endpoint: pIC50

* O=C1CCCc2[nH]c(-c3ccnc(NC(=O)C4C[C@H]4F)c3)c(Nc3ccccc3)c21 (mixture of isomers) | 7.78
* CO/N=C1\CC(C)(C)Cc2[nH]c(-c3ccncc3)c(Nc3ccccc3)c21 | 5.35
* CC1(C)CC(=O)c2c([nH]c(-c3ccncc3)c2Nc2cccc(OCCO)c2)C1 | 5.27
* CC(C)C1CC(=O)c2c([nH]c(-c3ccnc(NC(=O)C4CC4)c3)c2Nc2ccccc2)C1 (stereo not drawn) | 8.01
* CC(C)(C)OC(=O)N1CC(CNc2cc(-c3[nH]c4c(c3Nc3ccccc3)C(=O)CCC4)ccn2)C1 | 6.16
* CC1(C)CC(=O)c2c([nH]c(-c3ccncc3)c2Nc2ccc(F)c(C(F)(F)F)c2)C1 | 6.35
* CCOc1cc(F)ccc1Nc1c(-c2ccncc2)[nH]c2c1C(=O)CC(C)(C)C2 | 6.34
* CNc1cc(-c2[nH]c3c(c2Nc2ccccc2)C(=O)CCC3)ccn1 | 5.95
* COc1cc(-c2[nH]c3c(c2Nc2ccccc2)C(=O)CCC3)ccn1 | 5.72
* CC1(C)CC(=O)c2c([nH]c(-c3ccncc3)c2Nc2cccc(-c3ccccc3)c2)C1 | 7.68
* COCC(=O)Nc1cc(-c2[nH]c3c(c2Nc2ccccc2)C(=O)CCC3)ccn1 | 7.70
* O=C1CC2(CC2)Cc2[nH]c(-c3ccnc(NC(=O)C4CC4)c3)c(Nc3ccccc3)c21 | 8.04
* CC1(C)CC(=O)c2c([nH]c(-c3ccncc3)c2Nc2ccc3cc[nH]c3c2)C1 | 7.07
* CC1(C)CC(=O)c2c([nH]c(-c3ccnc(Cl)c3F)c2Nc2ccccc2)C1 | 7.91
* CC1(C)CC(=O)c2c([nH]c(-c3ccncc3)c2Nc2ccc(F)c(Cl)c2)C1 | 7.36
* CC(C)C(=O)Nc1cc(-c2[nH]c3c(c2Nc2ccccc2)C(=O)CCC3)ccn1 | 7.70
* O=C1CCCc2[nH]c(-c3cc(F)ncc3F)c(Nc3ccccc3)c21 | 6.04
* O=C(Nc1cc(-c2[nH]c3c(c2Nc2ccccc2)C(=O)CCC3)ccn1)c1ccccn1 | 7.53
* CC(C)c1cccc(Nc2c(-c3ccncc3)[nH]c3c2C(=O)CC(C)(C)C3)c1 | 7.13
* O=C(COC[C@@H]1CCCCO1)Nc1cc(-c2[nH]c3c(c2Nc2ccccc2)C(=O)CCC3)ccn1 | 8.07
* O=C(Nc1cc(-c2[nH]c3c(c2Nc2ccccc2)C(=O)CCC3)ccn1)c1nnn[nH]1 | 7.72
* O=C(Cc1ccc[nH]1)Nc1cc(-c2[nH]c3c(c2Nc2ccccc2)C(=O)CCC3)ccn1 | 7.86
* CC1(C)CC(=O)c2c([nH]c(-c3ccnc(NCCc4ccccc4)c3)c2Nc2ccccc2)C1 | 5.90
* CN(CC(=O)Nc1cc(-c2[nH]c3c(c2Nc2ccccc2)C(=O)CCC3)ccn1)C(=O)OC(C)(C)C | 6.57
* CC1(C)CC(=O)c2c([nH]c(-c3ccnc(NC(=O)c4cnn(Cc5ccccc5)c4)c3)c2Nc2ccccc2)C1 | 8.37
* Nc1cc(-c2[nH]c3c(c2Nc2cccc(F)c2)C(=O)CCC3)ccn1 | 7.03
* CC(C)C1CC(=O)c2c([nH]c(-c3ccnc(N)c3)c2Nc2cccc(F)c2)C1 (stereo not drawn) | 7.44
